test system: Salmonella typhimurium; assay: Comparative mutagenic activity toward Salmonella Typhimurium strain TA-100 at concentration of 10 nmol/plate; format: functional, Salmonella enterica subsp. enterica serovar Typhimurium
quantity.name: Revertants/plate
When you answer, write just the number.

CC(=O)Nc1ccc(/C=C/c2ccc(Cl)cc2)cc1 | 382
CC(=O)N(O)c1ccc(/C=C/c2ccc(Cl)cc2)cc1 | 356
CC(=O)Nc1ccc(/C=C/c2ccc(Br)cc2)cc1 | 211
CC(=O)Nc1ccc(/C=C/c2ccc(F)cc2)cc1 | 632

The value of Revertants/plate measured for the molecule "CC(=O)N(O)c1ccc(/C=C/c2ccc(F)cc2)cc1" turned out to be 825

Lookup result for "CC(=O)N(O)c1ccc(/C=C/c2ccccc2)cc1" ; measured Revertants/plate: 1218

Record summary for "CC(=O)Nc1ccc(/C=C/c2ccccc2)cc1" : reported Revertants/plate = 385

// "CC(=O)N(O)c1ccc(/C=C/c2ccc(Br)cc2)cc1" : Revertants/plate value = 374
